Test system: COLO 205 colon
Assay: NCI-60 one-dose screen, 48 h (100 = growth as untreated, 0 = no growth, -100 = all killed)
Details: 10 µM unless noted
Compounds without any hit were thinned out: in the full panel of roughly 83,000, 20% have a hit.
We label by threshold. Values of growth strictly beneath 50% are Met. Values of 50% and up are Not met.

* COc1ccc(C(=O)c2cc(OC)c(OC)c(OC)c2)cc1O | Met
* COc1cc(CC(=O)n2ncc3ccc(N)cc32)cc(OC)c1OC | Not met
* COC(=O)CNC(=O)[C@]12CCC(C)(C)C[C@H]1C1=CC[C@@H]3[C@@]4(C)Cc5c([nH]c6ccccc56)C(C)(C)[C@@H]4CC[C@@]3(C)[C@]1(C)CC2 | Not met
* CCc1c2c(nc3ccc(OCc4ccc(B(O)O)cc4)cc13)-c1cc3c(c(=O)n1C2)COC(=O)[C@]3(O)CC | Met
* COc1ccc(C(=O)Nc2cccc(C3CCc4c(cc(OC)c(OC)c4OC)O3)c2)cc1 (stereo not given) | Not met
* CCCCCCNC(=O)Oc1ccc(/C(=C(\C)c2ccccc2)c2ccc(OCCCN(C)C)cc2)cc1 | Not met
* COc1cc2cc(Oc3cccc(NC(=O)Nc4cc(C(F)(F)F)cc(C(F)(F)F)c4)c3)c(C)nc2cc1OC | Met
* O=C(CCN1CCCC1)Nc1ccc2c(NCc3ccccc3)c3ccccc3nc2c1 | Met
* COc1cc(C2C3=C(COC3=O)N(CCO)c3cc4c(cc32)CCC4)cc(OC)c1OC (stereo not given) | Met
* c1ccc2c(-c3c[nH]c4ccccc34)c3c(cc2c1)[nH]c1ccccc13 | Not met
* Cc1ccc(-n2cc(-c3ccccc3)c3c2N=NN2CCN=C32)cc1 | Not met
* Cn1cc(-c2nc(-c3c[nH]c4c(Cl)nccc34)cs2)c2cc(F)ccc21 | Not met
* CCNC(=O)Oc1ccc(/C(=C(\C)c2ccccc2)c2ccc(OCCN(CC)CC)cc2)cc1 | Not met
* CCCCCN1C=C/C(=C\C(=O)N(C)c2ccccc2Br)c2ccccc21 | Not met
* C[C@@H](Nc1ncnc2ccc(-c3cnc(N)nc3)cc12)c1ccc(F)cc1 | Not met
* C=CC(=O)N[C@@H](/C=C/C(=O)OCC)Cc1ccc(-c2cc(Cl)cc(Cl)c2)cc1 | Met
* COc1cccc(-c2ccc3c(c2)NC(=O)/C3=C\c2ccc[nH]2)c1 | Met
* Cc1ccc(NC(C(=O)c2ccccc2)c2ccccc2)cc1 (stereo not given) | Met
* N#Cc1c(NC(=O)NCc2ccccc2)sc2c1CCCCC2 | Met
* COc1cc(C(=O)Nc2cc3c(cc2Oc2cc(C)cc(C)c2)C(=O)N(C)[C@@H](CC(=O)N(C)O)C(=O)N3)c(Br)c(OC)c1OC | Met
